- System: YST-1
- protocol-details: relative IC50 (inflection point of fitted dose-response curve, CellTiter-Glo viability, 72 h; top asymptote may be below 50% inhibition); higher = less potent
measurement-kind: relative IC50

- CNC(=O)c1ccc2cc([C@@]3(O)CCn4cncc43)ccc2c1: > 10 µM
- O=C(c1ccc(F)c(F)c1Nc1ccc(I)cc1F)N1CC(O)([C@@H]2CCCCN2)C1: > 1 µM
- COc1ccc2c(OCc3nnc4ccc(-c5ccccc5)nn34)ccnc2c1: > 2.5 µM
- O=C1CN2Cc3c(ccc(Cl)c3Cl)N=C2N1 [Anagrelide]: > 10 µM
- CN(C)C(=N)NC(=N)N: > 100 µM
- O=C(O)c1ccc(CN2CCC(CN[C@@H]3C[C@H]3c3ccccc3)CC2)cc1: > 10 µM
- CC[C@H](CO)Nc1nc(NCc2ccccc2)c2ncn(C(C)C)c2n1: > 10 µM
- Nc1cccc2c1C(=O)N(C1CCC(=O)NC1=O)C2=O (centres undefined) [Pomalidomide]: > 10 µM
- Nc1ncnc2c1c(COc1cccc(Cl)c1)nn2C1CCOCC1: > 10 µM
